Sourced from ChEMBL document CHEMBL1201862

System: T47D
protocol_text: NCI tumour cell line growth inhibition, 48 h
Calls of active or inactive are those of the source. Rule as the data show it: active = GI50 up to about 1.1 µM and inactive = higher. Peptide text beside a SMILES is read from it. * marks the point of attachment. Boc = CC(C)(C)OC(=O)*
# GI50 annotations
parameter_measured: GI50

>>> endpoint_value("COC(=O)C(Cc1c[nH]c2ccccc12)NC(=O)C(Cc1c[nH]c2ccccc12)NC(=O)C(Cc1c[nH]c2ccccc12)NC(=O)C(Cc1c[nH]c2ccccc12)NC(=O)C(Cc1c[nH]c2ccccc12)NC(=O)OC(C)(C)C (centres undefined) (Boc-WWWWW-OMe; configuration not given here)")
"10.7 µM (inactive)"
>>> endpoint_value("O=C(O)c1ccccn1")
"> 100 µM (inactive)"
>>> endpoint_value("N#CC(C#N)=C(N)/C(C#N)=C/c1ccc(O)c(O)c1")
"53.7 µM (inactive)"
>>> endpoint_value("CCOC(=O)n1c2ccccc2c(=O)n1CCO")
"7.45 µM (inactive)"
